test.target: Neu5Ac(a2-3)Gal(b1-4)GlcNAc(b1-2)[Neu5Ac(a2-3)Gal(b1-4)GlcNAc(b1-4)]Man(a1-3)[GlcNAc(b1-4)][Neu5Ac(a2-3)Gal(b1-4)GlcNAc(b1-4)Man(a1-6)]Man(b1-4)GlcNAc(b1-4)GlcNAc
experimental.protocol: glycan array binding signal (z-score within array); higher = stronger binding
condition.summary: glycan notation: IUPAC condensed, linker removed
Only a selection was taken, and the strongest signals are over-represented in it overall.

binder: Flo1 (Saccharomyces cerevisiae), P32768 (protein) SGATEACLPAGQRKSGMNINFYQYSLKDSSTYSNAAYMAYGYASKTKLGSVGGQTDISIDYNIPCVSSSGTFPCPQEDSYGNWGCKGMGACSNSQGIAYWSTDLFGFYTTPTNVTLEMTGYFLPPQTGSYTFKFATVDDSAILSVGGATAFNCCAQQQPPITSTNFTIDGIKPWGGSLPPNIEGTVYMYAGYYYPMKVVYSNAVSWGTLPISVTLPDGTTVSDDFEGYVYSFDDDLSQSNCTVPDPSNY
glycan array binding signal (z-score): 0.143
//
binder: Epa23 (Candida glabrata) (protein) MGSSHHHHHHSSGLVPRGSHMIPNPFEGTINNFPSGCSPNHGLYNRGLTMELYNYSYIHPQSIQSYFNTSTLKKMEKGQCWDPSYLDVNYPRTGYKTHNRFAKVNGIDGILDFEFNPTRSCVPSKGQLPQNYNYPLQFTLSNFTMLLYGYFKPKVTAKHTFTIFADDLLFLNFGAGNAFDCCQQQDTIDDFGNYQAYALWGSDTQQNTLTVNLDANIYYPIRMFYNNRDFKGALNMYFTTDESNTKINDFSGYLFNIPDSSEGCPAHISYETECGNVSG
glycan array binding signal (z-score): -0.243
//
binder: PfulAvr4 2 (Pseudocercospora fuligena) (protein) HHHHHHDYKDDDDKAKPIKPFACPPKDFTTTKCQGPVDCLYANPLSCLGYIQCVCDDDACSTATPYAKSCPTGLAWVEKLKRCDGIKKSACPKKMYEGS
glycan array binding signal (z-score): -0.253
//
binder: Epa3to2 (Candida glabrata) (protein) MGSSHHHHHHSSGLVPRGSHMKRELSSQNPFGYPIGCSPQDVAIIPGLTMELYSYPIVSGTPPNCYDASYVDPEYPRTGYLKRKMVGKSTGVTGNLNYKYSVEKACMVKYGNLPAGYNYNEPLTVSNFTMILYGYFKAQTTGLHTFFVNADDLLYINFGAGNAFDCCKREDSKTKLGEYVAYDIWHVDSSKNKVSLFLEKDLYYPIRMFFNNRDNNSSLDLSFSVNGATDQISDFSGYLYSVPDQPDTCPAHIGYDTTCR
glycan array binding signal (z-score): -0.302
//
binder: Tp0751, 83732 (protein) MSYYHHHHHHLESTSLYKKAGFQHGHVPPRRIPPHDTFGALPTAALPSNARDTAAHPSDTADNTSGSSTTTDPRSHGNAPPAPVGGAAQTHTQPPVQTAMRIALWNRATHGEQGALQHLLAGLWIQTEISPNSGDIHPLLFFDREHAEITFSRASVQEIFLVDSAHTHRKTVSFLTRNTAISSIRRRLEVTFESHEVIHVRAVEDVARLKIGSTSMWDGQYTRYHAGPASAPSP
glycan array binding signal (z-score): -0.386
